Value source: PubChem BioAssay (NCI)

Assign growth to each entry below.
System: OVCAR-3 ovarian
Test: NCI-60 one-dose screen, 48 h (100 = growth as untreated, 0 = no growth, -100 = all killed)
Conditions: 10 µM unless noted
Description: Growth inhibition of the OVCAR-3 human tumor cell line is measured as a screen for anti-cancer activity. Cells are grown in 96 well plates and exposed to the test compound for 48 hours. Compounds are tested at a single concentration, which is 10^-5 M for most compounds. The reported endpoint is percent growth (GI% or GIPRCNT), where numbers from 0 - 100% represent growth inhibition, and numbers from -100% - 0 represent cell death. For example, a value of 40 represents 60% growth inhibition. […]
This is part of a sample that, as a whole, favours compounds with a hit. Of some 83,000 tested, about 20% had one in any assay. Active and inactive are the calls of the source. The calls were made as follows: active = growth percent below 10; inactive = the rest.

Sample records with growth:
>>> result("CN1CCN(c2c(F)cc(NC3=C(Cl)C(=O)c4ncccc4C3=O)cc2F)CC1")
"-28% (active)"
>>> result("OC1(c2ccc(Cl)c(C(F)(F)F)c2)CCN(CCCC(c2ccc(F)cc2)c2ccc(F)cc2)CC1")
"-99.9% (active)"
>>> result("O=C(Nc1nc(-c2ccc(Br)cc2)cs1)c1cc(-c2ccc(Br)cc2)nc2ccc(Cl)cc12")
"86.9% (inactive)"
>>> result("N#Cc1c(NC(=O)c2cccc(Br)c2)sc2c1CCCC2")
"95% (inactive)"
>>> result("CC(=O)O[C@]1(C(C)=O)CC[C@H]2[C@@H]3C=C(Cl)C4=CC(=O)CC[C@]4(C)[C@H]3CC[C@@]21C")
"121% (inactive)"
>>> result("CCCCCCCCCCCCCCCC(=O)OC[C@@]1(O)C[C@@]23CC[C@@H]4C(C)(C)CCC[C@@]4(C)[C@@H]2CC[C@H]1C3")
"103% (inactive)"

Quick batch: growth for everything below.
1. CCCNC(=O)Oc1ccc(/C(=C(\C)c2ccccc2)c2ccc(OCCN3CCCCC3)cc2)cc1
2. COc1cc2oc(-c3cccc(C(=O)Nc4ccc(Cl)cc4)c3)cc(=O)c2c(OC)c1OC
3. COc1cc(NCC(O)CN(CC(C)C)CC(C)C)c2nc(C)ccc2c1 (stereo unspecified)
4. O=C(Nc1ccc(F)cc1)c1c(NC(=O)C(F)(F)F)sc2c1CCCCC2
5. Cc1ccc(C2C3CC4CCCCC4N3[C@@]3(C(=O)Nc4cc(Cl)ccc43)C2C(=O)c2nc3ccccc3[nH]2)cc1 (stereo partly specified)
6. Cc1ccc(C2CC(c3cccc(Nc4ccncc4)c3)=NN2c2ccccc2)cc1 (stereo unspecified)
7. CN1CCN(c2cc(F)c(NC3=C(Cl)C(=O)c4ncccc4C3=O)c(F)c2)CC1
8. O=C(Nc1nc2ccc(C(=O)N3CCN(c4ccc(Cl)c(Cl)c4)CC3)cc2s1)c1ccc(NCCc2ccccc2)c([N+](=O)[O-])c1

75.6% (inactive)
43.1% (inactive)
53.2% (inactive)
4.39% (active)
33.4% (inactive)
-89.2% (active)
-98.2% (active)
111% (inactive)

Quick batch: growth for everything below.
1. O=C(Nc1ccc(Nc2ncccn2)cc1)NC1C=c2ccccc2=CC1 (stereo unspecified)
2. COc1ccc2c(Nc3ccc(NS(C)(=O)=O)cc3)c3ccccc3nc2c1
3. CC(=O)N1c2ccccc2NC2=C(C(=O)N(Cc3ccccc3)C2(C)C)C1c1ccco1 (stereo unspecified)
4. O=C(Nc1nc2ccc(S(=O)(=O)Nc3ccc(C4(C(F)(F)F)CC4)cc3)cc2[nH]1)c1cnccn1
5. CCn1cc(C2NC(=O)c3ccccc3N2)c2cccc(C)c21 (stereo unspecified)
6. COc1ccc2c(c1)c(CC(=O)NCCOCCOCC(=O)Nc1ccc(OC)c(C(N)=O)c1O)c(C)n2C(=O)c1ccc(Cl)cc1
7. COc1cc(OC)c(/C=C/C(=O)c2ccc(Nc3ncnc4ccccc34)cc2)c(OC)c1
8. CN1CCN(Cc2ccc(NC(=O)c3cncc(C#Cc4cnccc4C(F)(F)F)c3)cc2C(F)(F)F)CC1

1: 107% (inactive); 2: -22.3% (active); 3: -7.66% (active); 4: -18.6% (active); 5: -44.9% (active); 6: 103% (inactive); 7: -67.8% (active); 8: 105% (inactive)

Quick batch: growth for everything below.
1. Cc1cc2nc(-c3ccccc3)c(-c3ccccc3)nc2cc1C
2. COc1cc2nc(Cc3ccc(C)cc3)[nH]c(=O)c2cc1OC
3. COc1cc(/C=C2\C(=O)N(Cc3ccc(Cl)cc3)c3ccccc32)cc(OC)c1OC
4. CCN(CC)CCSCCCNc1c(C)cnc2cc(Cl)ccc12
5. COc1ccccc1OCC(=O)N1CCCCCC1
6. COc1ccc(Cn2nc(-c3ccccc3)c3c2CCc2cnoc2-3)cc1

["113% (inactive)", "109% (inactive)", "-49.6% (active)", "82.5% (inactive)", "116% (inactive)", "87.4% (inactive)"]
